From: the supplement of paper PMC11196671

PET hydrolysis product formed: recorded values
- test-protocol: PET hydrolysis product formed (TPA+MHET+BHET, UV-Vis) per mg enzyme (mmol/mg enzyme); higher = more PET depolymerisation activity; extreme values may be limits of the assay
- setup-conditions: PET substrate: aFilm; 60 °C; pH 8.5; 24 h
Give your answer as a number; write no unit.

[ask] Please give the documented PET hydrolysis product formed of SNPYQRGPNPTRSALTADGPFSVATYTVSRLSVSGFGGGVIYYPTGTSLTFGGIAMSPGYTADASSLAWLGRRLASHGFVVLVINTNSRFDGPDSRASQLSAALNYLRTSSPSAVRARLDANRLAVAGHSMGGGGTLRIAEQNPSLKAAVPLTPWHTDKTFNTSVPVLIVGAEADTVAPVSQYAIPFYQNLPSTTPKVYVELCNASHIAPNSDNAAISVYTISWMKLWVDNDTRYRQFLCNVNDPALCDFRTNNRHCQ [LCC-A2]
[reply] 0.195

Continuing:
[ask] Supply recorded PET hydrolysis product formed for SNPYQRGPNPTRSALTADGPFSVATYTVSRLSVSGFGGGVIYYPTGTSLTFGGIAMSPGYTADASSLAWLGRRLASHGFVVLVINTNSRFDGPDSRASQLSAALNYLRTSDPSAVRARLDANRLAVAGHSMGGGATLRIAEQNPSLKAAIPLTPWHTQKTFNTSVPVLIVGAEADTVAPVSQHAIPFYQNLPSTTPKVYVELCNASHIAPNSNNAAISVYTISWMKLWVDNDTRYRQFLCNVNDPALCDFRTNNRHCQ [LCC-ICCG DAQI] here.
[reply] 0.167

[ask] Given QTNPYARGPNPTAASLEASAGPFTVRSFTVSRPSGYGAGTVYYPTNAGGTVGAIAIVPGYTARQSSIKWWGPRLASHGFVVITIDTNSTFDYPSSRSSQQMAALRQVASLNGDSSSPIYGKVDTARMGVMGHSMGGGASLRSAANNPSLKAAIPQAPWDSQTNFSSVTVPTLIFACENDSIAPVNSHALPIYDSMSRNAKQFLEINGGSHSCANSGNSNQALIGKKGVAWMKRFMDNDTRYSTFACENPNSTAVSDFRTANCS [DuraPETase] , respond with its PET hydrolysis product formed.
[reply] 0.0536

[ask] Determine from records and report PET hydrolysis product formed for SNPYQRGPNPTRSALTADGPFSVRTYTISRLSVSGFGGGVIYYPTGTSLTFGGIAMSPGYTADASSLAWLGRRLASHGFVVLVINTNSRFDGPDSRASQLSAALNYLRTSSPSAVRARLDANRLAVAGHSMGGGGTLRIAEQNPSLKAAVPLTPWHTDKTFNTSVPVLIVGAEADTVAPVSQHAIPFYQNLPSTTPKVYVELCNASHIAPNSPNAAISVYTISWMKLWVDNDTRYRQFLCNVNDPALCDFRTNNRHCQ [LCC-ICCG RIP]
[reply] 0.127

[ask] Look up PET hydrolysis product formed of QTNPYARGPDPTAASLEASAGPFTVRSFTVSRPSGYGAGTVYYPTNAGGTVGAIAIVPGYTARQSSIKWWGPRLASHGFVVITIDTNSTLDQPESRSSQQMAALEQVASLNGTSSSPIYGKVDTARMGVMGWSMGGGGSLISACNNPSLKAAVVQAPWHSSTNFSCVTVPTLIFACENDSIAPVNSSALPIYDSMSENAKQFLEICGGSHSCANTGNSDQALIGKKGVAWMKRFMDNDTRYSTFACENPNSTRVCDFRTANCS [Z1-PETase] and report it.
[reply] 0.103

[ask] Consider the sequence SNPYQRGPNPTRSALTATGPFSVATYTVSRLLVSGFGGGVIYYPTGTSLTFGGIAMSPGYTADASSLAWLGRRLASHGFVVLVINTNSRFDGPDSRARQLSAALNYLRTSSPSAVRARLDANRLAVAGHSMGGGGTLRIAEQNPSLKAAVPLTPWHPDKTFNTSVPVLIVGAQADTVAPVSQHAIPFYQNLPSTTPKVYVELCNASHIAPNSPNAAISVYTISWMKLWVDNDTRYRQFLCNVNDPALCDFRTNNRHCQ [LCC-ICCG I6M] and give its recorded PET hydrolysis product formed.
[reply] 0.169

[ask] Query PET hydrolysis product formed for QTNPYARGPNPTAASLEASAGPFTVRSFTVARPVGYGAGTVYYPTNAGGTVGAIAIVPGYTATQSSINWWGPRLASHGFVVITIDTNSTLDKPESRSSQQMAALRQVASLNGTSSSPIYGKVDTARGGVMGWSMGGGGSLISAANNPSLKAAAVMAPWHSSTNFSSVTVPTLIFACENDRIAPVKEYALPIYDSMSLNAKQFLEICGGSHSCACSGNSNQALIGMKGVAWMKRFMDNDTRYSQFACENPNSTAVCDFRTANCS [HotPETase]
[reply] 0.116

[ask] For the sequence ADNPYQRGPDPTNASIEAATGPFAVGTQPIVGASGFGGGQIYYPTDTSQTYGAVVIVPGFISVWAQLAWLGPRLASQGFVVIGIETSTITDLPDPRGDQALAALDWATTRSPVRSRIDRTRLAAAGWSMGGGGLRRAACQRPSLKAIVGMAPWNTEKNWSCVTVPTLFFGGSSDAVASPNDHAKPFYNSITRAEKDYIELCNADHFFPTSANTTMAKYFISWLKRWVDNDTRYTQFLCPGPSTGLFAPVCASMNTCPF [CaPETaseM9] , give its reported PET hydrolysis product formed.
[reply] 0.0575

[ask] Output PET hydrolysis product formed of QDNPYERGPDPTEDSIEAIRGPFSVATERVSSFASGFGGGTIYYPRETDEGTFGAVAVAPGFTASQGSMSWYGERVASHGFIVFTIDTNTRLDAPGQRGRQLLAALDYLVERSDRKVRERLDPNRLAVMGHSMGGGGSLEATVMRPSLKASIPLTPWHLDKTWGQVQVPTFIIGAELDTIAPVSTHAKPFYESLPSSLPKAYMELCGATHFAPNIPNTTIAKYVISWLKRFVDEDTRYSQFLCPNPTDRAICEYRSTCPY [Cut190*SS]
[reply] 0.0616

[ask] State its PET hydrolysis product formed for this sequence: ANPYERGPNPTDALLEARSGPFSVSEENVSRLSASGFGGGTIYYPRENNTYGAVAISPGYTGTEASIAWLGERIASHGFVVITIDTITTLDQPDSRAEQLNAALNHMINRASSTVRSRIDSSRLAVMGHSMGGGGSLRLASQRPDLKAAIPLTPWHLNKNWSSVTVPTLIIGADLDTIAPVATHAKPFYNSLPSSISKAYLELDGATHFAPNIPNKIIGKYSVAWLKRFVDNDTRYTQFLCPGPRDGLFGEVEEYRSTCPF [TfCut2]
[reply] 0.0556

[ask] Give recorded PET hydrolysis product formed. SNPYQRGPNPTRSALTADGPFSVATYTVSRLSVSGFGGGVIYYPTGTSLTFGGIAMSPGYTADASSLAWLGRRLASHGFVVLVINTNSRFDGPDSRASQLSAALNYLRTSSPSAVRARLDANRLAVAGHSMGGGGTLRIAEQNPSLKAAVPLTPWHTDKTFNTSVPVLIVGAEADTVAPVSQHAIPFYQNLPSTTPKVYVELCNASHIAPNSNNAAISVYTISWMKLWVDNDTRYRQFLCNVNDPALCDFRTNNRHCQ [LCC-ICCG]
[reply] 0.142

* * *

- test-protocol: MHET released, HPLC; higher = more MHET released; extreme values may be limits of the assay
- setup-conditions: PET substrate: aFilm; 70 °C; pH 4.5; 24 h
measured-quantity: MHET released (mM)
Express the result in mM but write the number alone.

[ask] Hello, please tell me recorded MHET released for this one: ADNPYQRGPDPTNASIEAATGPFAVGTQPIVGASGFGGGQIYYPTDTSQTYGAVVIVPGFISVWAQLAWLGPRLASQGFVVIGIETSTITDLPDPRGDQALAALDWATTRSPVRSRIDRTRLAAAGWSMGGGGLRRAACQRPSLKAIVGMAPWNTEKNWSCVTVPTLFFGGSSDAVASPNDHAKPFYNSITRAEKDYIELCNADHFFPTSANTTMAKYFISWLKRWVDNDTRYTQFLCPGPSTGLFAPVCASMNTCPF [CaPETaseM9]
[reply] 0

Please look at the following sequence next.
[ask] Specify MHET released for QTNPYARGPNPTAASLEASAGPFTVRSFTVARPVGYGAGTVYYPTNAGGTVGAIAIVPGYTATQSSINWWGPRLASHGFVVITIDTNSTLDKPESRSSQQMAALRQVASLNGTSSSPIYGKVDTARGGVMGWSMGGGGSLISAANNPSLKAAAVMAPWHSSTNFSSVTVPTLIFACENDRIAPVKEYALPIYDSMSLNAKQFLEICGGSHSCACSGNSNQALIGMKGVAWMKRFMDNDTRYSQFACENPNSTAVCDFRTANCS [HotPETase] and stop.
[reply] 0

* * *

- test-protocol: terephthalic acid (TPA) released, HPLC; higher = more TPA released; extreme values may be limits of the assay
- setup-conditions: PET substrate: aFilm; 70 °C; pH 7.5; 24 h
Each entry gets 0 if its terephthalic acid stays under 0.2 mM, and 1 if its terephthalic acid is 0.2 mM or above.

[ask] Could you please find out whether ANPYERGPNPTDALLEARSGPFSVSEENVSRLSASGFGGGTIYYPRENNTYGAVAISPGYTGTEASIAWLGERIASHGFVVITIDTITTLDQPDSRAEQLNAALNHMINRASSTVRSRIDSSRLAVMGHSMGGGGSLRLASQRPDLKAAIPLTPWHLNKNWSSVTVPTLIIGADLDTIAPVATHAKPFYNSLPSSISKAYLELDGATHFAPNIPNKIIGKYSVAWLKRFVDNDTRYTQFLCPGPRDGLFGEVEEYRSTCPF [TfCut2] has terephthalic acid that meets 0.2 mM or exceeds it?
[reply] 0

[ask] Decide: is the reported value of terephthalic acid for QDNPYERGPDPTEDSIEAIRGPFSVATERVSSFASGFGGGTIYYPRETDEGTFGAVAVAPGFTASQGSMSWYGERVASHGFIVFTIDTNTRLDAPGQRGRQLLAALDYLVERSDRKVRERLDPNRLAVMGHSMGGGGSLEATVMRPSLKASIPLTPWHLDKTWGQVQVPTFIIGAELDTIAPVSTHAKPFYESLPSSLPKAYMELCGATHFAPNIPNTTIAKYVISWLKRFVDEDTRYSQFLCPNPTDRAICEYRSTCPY [Cut190*SS] equal to or greater than 0.2 mM?
[reply] 0

[ask] Identify whether the reported terephthalic acid of the following sequence is 0.2 mM or greater: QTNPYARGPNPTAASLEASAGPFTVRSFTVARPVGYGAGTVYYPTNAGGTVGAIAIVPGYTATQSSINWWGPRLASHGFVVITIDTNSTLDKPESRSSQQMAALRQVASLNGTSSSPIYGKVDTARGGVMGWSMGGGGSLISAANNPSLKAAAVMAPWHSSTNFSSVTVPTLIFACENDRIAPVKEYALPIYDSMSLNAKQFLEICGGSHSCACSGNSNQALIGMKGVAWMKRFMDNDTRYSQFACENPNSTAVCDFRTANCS [HotPETase]
[reply] 0

Further cases:
[ask] Decide: terephthalic acid of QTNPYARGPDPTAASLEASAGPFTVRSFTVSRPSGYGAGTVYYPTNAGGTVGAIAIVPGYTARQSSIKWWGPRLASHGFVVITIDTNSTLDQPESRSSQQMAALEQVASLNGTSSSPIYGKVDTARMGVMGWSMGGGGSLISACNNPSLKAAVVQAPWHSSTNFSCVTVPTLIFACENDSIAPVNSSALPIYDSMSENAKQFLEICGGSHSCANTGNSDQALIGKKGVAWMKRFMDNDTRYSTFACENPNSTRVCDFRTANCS [Z1-PETase] >= 0.2 mM?
[reply] 0

[ask] Kindly determine if terephthalic acid recorded for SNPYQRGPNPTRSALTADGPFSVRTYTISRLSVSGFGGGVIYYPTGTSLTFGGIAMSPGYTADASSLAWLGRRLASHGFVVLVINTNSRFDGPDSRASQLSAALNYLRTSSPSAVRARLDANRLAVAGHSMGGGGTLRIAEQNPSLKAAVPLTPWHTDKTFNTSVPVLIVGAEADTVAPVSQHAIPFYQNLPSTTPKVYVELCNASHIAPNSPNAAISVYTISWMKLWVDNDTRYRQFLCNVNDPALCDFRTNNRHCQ [LCC-ICCG RIP] is above or exactly 0.2 mM.
[reply] 1

[ask] Please tell me: is the sequence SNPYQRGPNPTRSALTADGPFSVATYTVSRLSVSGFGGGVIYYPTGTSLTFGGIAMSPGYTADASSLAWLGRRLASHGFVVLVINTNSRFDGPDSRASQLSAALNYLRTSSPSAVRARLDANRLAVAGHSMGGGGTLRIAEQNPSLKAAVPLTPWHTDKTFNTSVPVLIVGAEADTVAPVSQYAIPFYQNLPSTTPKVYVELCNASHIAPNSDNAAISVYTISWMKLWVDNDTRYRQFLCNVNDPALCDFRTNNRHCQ [LCC-A2] at or over 0.2 mM in terms of terephthalic acid?
[reply] 1
